Test system: SF-539 CNS
Assay: NCI-60 one-dose screen, 48 h
Settings: 10 µM
Experimental: Cells are grown in 96 well plates and exposed to the test compound for 48 hours. Compounds are tested at a single concentration, which is 10^-5 M for most compounds. The reported endpoint is percent growth (GI% or GIPRCNT), where numbers from 0 - 100% represent growth inhibition, and numbers from -100% - 0 represent cell death. For example, a value of 40 represents 60% growth inhibition. A value of 0 means no net growth occurred over the course of the experiment. […]
Compounds without any hit were thinned out: in the full panel of roughly 83,000, 20% have a hit. The source made the active and inactive calls. The calls were made as follows: active = growth percent below 10; inactive = the rest.
# output must be one of True for active, False for inactive

Asked: Assay outcome for Cc1cccc(C)c1NC(=O)c1sc2nc3c(cc2c1N)C(=O)CCC3 : what was it?
Given back: False

Asked: Lab log entry: O=C1N=NC2=C1c1c3ccccc3c(O)n1CC2 — outcome as called in the assay?
Given back: False

src = PubChem BioAssay (NCI)
